# EC50 per record follows
- tested-on: T1, human claudin 6 (CLDN6) (human, UniProt P56747 1-220)
- T1 construct: also called human CLDN6; hCLDN6
- T1 sequence: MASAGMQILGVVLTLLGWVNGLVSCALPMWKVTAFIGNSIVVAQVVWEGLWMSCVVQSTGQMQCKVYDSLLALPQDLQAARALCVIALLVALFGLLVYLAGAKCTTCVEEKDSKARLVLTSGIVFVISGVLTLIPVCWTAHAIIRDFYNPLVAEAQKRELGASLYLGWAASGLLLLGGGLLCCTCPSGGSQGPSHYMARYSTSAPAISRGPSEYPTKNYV
- assay-method-text: FACS, HEK293T/human CLDN6 cells
Answer in nM, number only, no unit symbol.

Examples with answers:
IN: Respond only with EC50 recorded for BG87P-Bz0 (antibody, V domains shown, also called BG87-Bz0) VH: QIQLVQSGAEVKKPGASVKVSCKASGYSFTDYHINWVRQAPGQRLEWMGWIYPGSGYTKYNEKFKVRVTLTVDTSASTAYMELSSLRSEDTAVYFCARSGIYHYVSSYYFDHWGKGTTVTVSS VL: DIQMTQSPSTLSASVGDRVTITCKASQDVGTAVAWYQQKPGKSPKLLIYWASTRHTGVPSRFSGSGSGTEFTLTISSVQPDDFATYFCQQYSSYTFGGGTKVEIK
OUT: 2.1

IN: Respond only with EC50 recorded for BG87P-m2 (antibody, V domains shown, PTM removal variant of chBG87P; constant regions not restated (parent: human IgG1/kappa)) VH: QIQLQQSGPELVKPGASVKISCKASGYSFTDYHINWVKQRPGQGLEWIGWIYPGSGYTKYNEKFKVKATLTVDTSSSTAYMHLTSLTSEDSAVYFCARSGIYHYVSSYYFQHWGQGTTLTVSS VL: DIVMTQSHTFMSTSVGDRVSITCKASQDVGTAVAWYQQKPGQSPKLLIYWASTRHTGVPDRFTGSGSGTDFTLTISNVQSEDLADYFCQQYSSYTFGGGTKLEIK
OUT: 2.51

IN: Respond only with EC50 recorded for BG87P-26 (antibody, V domains shown) VH: QIQLVQSGAEVKKPGASVKVSCKASGYSFTDYHINWVRQAPGQRLEWMGWIYPGSGYTKYNEKFKGRVTITRDTSASTAYMELSSLRSEDTAVYFCARSGIYHYVSSYYFDHWGKGTTVTVSS VL: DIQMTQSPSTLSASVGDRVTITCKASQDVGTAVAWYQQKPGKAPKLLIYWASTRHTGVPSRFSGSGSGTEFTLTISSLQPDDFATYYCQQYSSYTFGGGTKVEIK
OUT: 2.3

IN: Respond only with EC50 recorded for BG87P-Bz5 (antibody, V domains shown) VH: QIQLVQSGAEVKKPGASVKVSCKASGYSFTDYHINWVRQAPGQRLEWMGWIYPGSGYTKYNEKFKVRVTLTVDTSASTAYMELSSLRSEDTAVYYCARSGIYHYVSSYYFDHWGKGTTVTVSS VL: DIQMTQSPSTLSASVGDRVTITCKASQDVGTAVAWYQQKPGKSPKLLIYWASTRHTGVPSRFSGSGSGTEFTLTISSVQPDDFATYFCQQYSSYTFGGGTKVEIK
OUT: 2.55

Next:
IN: Respond only with EC50 recorded for BG87P-24 (antibody, V domains shown) VH: QVQLVQSGAEVKKPGASVKVSCKASGYSFTDYHINWVRQAPGQRLEWMGWIYPGSGYTKYNEKFKGRVTLTRDTSASTAYMELSSLRSEDTAVYYCARSGIYHYVSSYYFDHWGKGTTVTVSS VL: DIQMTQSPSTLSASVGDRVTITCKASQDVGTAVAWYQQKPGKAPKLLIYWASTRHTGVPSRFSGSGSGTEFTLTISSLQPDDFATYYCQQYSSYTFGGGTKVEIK
OUT: 2.16
